# Assay Explanation: Pharmacokinetic analysis of multiple doses of sepiapterin (once daily for 7 days, fed subjects)
# Format: in vivo, human
# Condition Info: human, plasma, 20 mg/kg, Day 7; sepiapterin 20 mg/kg once daily; fed; read-out: Cmax
Quantity: Cmax (ng/mL)
State just the number; it will be interpreted in ng/mL.

Query :: Can you share its Cmax? I mean this molecule: C[C@H](O)[C@H](O)[C@H]1CNc2nc(N)[nH]c(=O)c2N1 [BH4, Tetrahydrobiopterin]
Result :: 516

* * *

# Assay Explanation: Food effect on administration of sepiapterin: plasma sepiapterin and BH4 concentrations, fasted vs fed
# Type: in vivo, human
# Condition Info: human, plasma, oral, 10 mg/kg, fasted; sepiapterin 10 mg/kg oral; 4 h; read-out: Concentration in Plasma, Mean
Quantity: concentration at 4 h (nM)
State just the number; it will be interpreted in nM.

Query :: Can you share its concentration at 4 h? I mean this molecule: C[C@H](O)[C@H](O)[C@H]1CNc2nc(N)[nH]c(=O)c2N1 [BH4, Tetrahydrobiopterin]
Result :: 624

New cases:
Query :: Can you share its concentration at 4 h? I mean this molecule: C[C@H](O)C(=O)C1=Nc2c(nc(N)[nH]c2=O)NC1 [sepiapterin, Sepiapterin]
Result :: 1.88

Taken from patent US20220362249A1.
